System: Stellaria media
test.method.notes: Herbicidal post-emergence action (greenhouse pots), STEME
Type: in vivo
details: 1280 g/ha, visual rating about 3 weeks after treatment vs untreated controls
measurement.label: herbicidal activity STEME (%)
Numeric answer only, unit % assumed.

N#Cc1cccc(Nc2ncc(F)cn2)c1Oc1ccc(Cl)nc1 | 90
Fc1ccc(Oc2c(I)cccc2Nc2ncc(Cl)cn2)cc1 | 90
N#Cc1cccc(Nc2ccc(F)cn2)c1Oc1ccc(F)cc1 | 90
N#Cc1ccc(Oc2c(C#N)cccc2Nc2ncc(F)cn2)cc1 | 100
CCc1cnc(Nc2cccc(C#N)c2Oc2ccc(F)cc2)nc1 | 90

The compound listed as "N#Cc1cccc(Nc2ncc(F)cn2)c1Oc1ccc(F)cc1" has a reported herbicidal activity STEME of 100

Notebook: "N#Cc1cccc(Nc2ncccn2)c1Oc1ccc(C(F)(F)F)cc1" , herbicidal activity STEME read as 90

// herbicidal activity STEME value for "Clc1cnc(Nc2cccc(Cl)c2Oc2ccccc2)nc1" : 100

Recorded result, "N#Cc1cccc(Nc2ncc(Cl)cn2)c1Oc1ccc(Cl)cc1F" , herbicidal activity STEME: 100

herbicidal activity STEME reported for this compound "N#Cc1cccc(Nc2ncc(F)cn2)c1Oc1ccc(Cl)cc1" : 100

// "N#Cc1cccc(Nc2ncc(Cl)cn2)c1Oc1ccc(F)c(F)c1" : herbicidal activity STEME value = 100

====

System: Lolium rigidum
test.method.notes: Herbicidal pre-emergence action (greenhouse pots), LOLRI
Assay type: in vivo
details: 1280 g/ha, visual scoring after about 3 weeks vs untreated controls
measurement.label: herbicidal activity LOLRI
Mention the unit after the number when you answer.

N#Cc1cccc(Nc2ncc(F)cn2)c1Oc1ccc(Cl)cc1 | 90%
N#Cc1cccc(Nc2ncc(F)cn2)c1Oc1cccc(C(F)(F)F)c1 | 100%
N#Cc1cccc(Nc2ncc(F)cn2)c1Oc1ccc(C(F)(F)F)cc1 | 90%
N#Cc1cccc(Nc2ncc(F)cn2)c1Oc1ccc(F)cc1 | 100%

Could you now consider this next compound?
Looking up "N#Cc1cccc(Nc2ncccn2)c1Oc1ccc(F)cc1" , I see its herbicidal activity LOLRI listed as 100%

====

Tested on: Setaria viridis
test.method.notes: Herbicidal post-emergence action (greenhouse pots), SETVI
Assay type: in vivo
details: 1280 g/ha, rated after about 3 weeks, 100% = plants have died, 0% = like untreated control plants
A collection of compounds and their measured SETVI (herbicidal activity, rated visually in comparison to untreated controls)
Express your answer in %, writing the number without its unit.

N#Cc1cccc(Nc2ncc(F)cn2)c1Oc1ccc(Cl)cc1F [Example 1-275] | 90

Proceeding to the next compound to report its SETVI (herbicidal activity, rated visually in comparison to untreated controls).
For N#Cc1cccc(Nc2ncc(F)cn2)c1Oc1ccc(F)c(F)c1 [Example 1-272] the compound record lists SETVI (herbicidal activity, rated visually in comparison to untreated controls) as 100

====

Test system: Abutilon theophrasti
test.method.notes: Herbicidal post-emergence action (greenhouse pots), ABUTH
Type: in vivo
details: 1280 g/ha, visual rating about 3 weeks after treatment vs untreated controls
Measured herbicidal activity ABUTH, listed per entry for reference.
Unit % implied. Number only.

N#Cc1cccc(Nc2ncc(OC(F)F)cn2)c1Oc1ccc(F)cc1 | 90
N#Cc1cccc(Nc2ncccn2)c1Oc1ccc(F)cc1 | 100
Cc1cnc(Nc2cccc(C#N)c2Oc2ccc(F)cc2)nc1 | 100
N#Cc1cccc(Nc2ncc(F)cn2)c1Oc1cccc(F)c1 | 100
N#Cc1cccc(Nc2ncc(F)cn2)c1Oc1ccc(F)cc1F | 90
N#Cc1cccc(Nc2ncc(F)cn2)c1Oc1cccc(C(F)(F)F)c1 | 90

// herbicidal activity ABUTH value for "COc1cnc(Nc2cccc(C#N)c2Oc2ccc(F)cc2)nc1" : 100

herbicidal activity ABUTH for "N#Cc1cccc(Nc2ncc(F)cn2)c1Oc1ccc(F)c(F)c1" is 100

Lab note: "N#Cc1cccc(Nc2ncc(F)cn2)c1Oc1cc(F)c(F)cc1F" gave herbicidal activity ABUTH of 90

Entry "N#Cc1cccc(Nc2ncc(Cl)cn2)c1Oc1ccc(Cl)nc1" , herbicidal activity ABUTH reported as 100

====

System: Echinochloa crus-galli
test.method.notes: Herbicidal post-emergence action (greenhouse pots), ECHCG
Type: in vivo
details: 1280 g/ha, rated after about 3 weeks, 100% = plants have died, 0% = like untreated control plants
Excerpt: […]
measurement.label: ECHCG (herbicidal activity, rated visually in comparison to untreated controls) (%)
Give your result in % as a bare value.

Worked examples follow.
N#Cc1cccc(Nc2ncc(F)cn2)c1Oc1ccc(F)c(F)c1 | 100
N#Cc1cccc(Nc2ncc(Cl)cn2)c1Oc1ccc(F)cc1 | 100

// next item, ECHCG (herbicidal activity, rated visually in comparison to untreated controls) requested
The measured ECHCG (herbicidal activity, rated visually in comparison to untreated controls) associated with "N#Cc1cccc(Nc2ncccn2)c1Oc1ccc(F)c(F)c1" reads 100

====

Tested on: Echinochloa crus-galli
test.method.notes: Herbicidal post-emergence action (greenhouse pots), ECHCG
Assay type: in vivo
details: 1280 g/ha, rated after about 3 weeks, 100% = plants have died, 0% = like untreated control plants
measurement.label: ECHCG (herbicidal activity, rated visually in comparison to untreated controls) (%)
The reply should be a number in %, with the unit left off.

// solved cases for ECHCG (herbicidal activity, rated visually in comparison to untreated controls) follow
N#Cc1cccc(Nc2ncc(F)cn2)c1Oc1ccc(F)cc1F | 90
N#Cc1cccc(Nc2ncc(Cl)cn2)c1Oc1ccc(Cl)nc1 | 100
N#Cc1cccc(Nc2ncc(Cl)cn2)c1Oc1ccc(Cl)cc1 | 100
N#Cc1cccc(Nc2ncc(F)cn2)c1Oc1ccc(F)c(F)c1F | 100
N#Cc1cccc(Nc2ncc(F)cn2)c1Oc1cccc(F)c1 | 100
Cc1cnc(Nc2cccc(C#N)c2Oc2ccc(F)cc2)nc1 | 100

The recorded ECHCG (herbicidal activity, rated visually in comparison to untreated controls) for entry "N#Cc1cccc(Nc2ncc(F)cn2)c1Oc1ccc(F)nc1" equals 100

The recorded ECHCG (herbicidal activity, rated visually in comparison to untreated controls) for "N#Cc1cccc(Nc2ncc(Cl)cn2)c1Oc1ccc(F)c(F)c1" is 100

# ECHCG (herbicidal activity, rated visually in comparison to untreated controls) (compound: "N#Cc1cccc(Nc2ncc(F)cn2)c1Oc1cccc(C(F)(F)F)c1" ) is 90

====

System: Lolium rigidum
test.method.notes: Herbicidal pre-emergence action (greenhouse pots), LOLRI
Type: in vivo
details: 1280 g/ha, visual scoring after about 3 weeks vs untreated controls
measurement.label: herbicidal activity LOLRI (%)
Response body: numeric value in %, unit text excluded.

N#Cc1ccc(Oc2c(C#N)cccc2Nc2ncc(Cl)cn2)cc1 | 90
N#Cc1cccc(Nc2ncc(F)cn2)c1Oc1ccc(F)nc1 | 100
N#Cc1cccc(Nc2ncc(Cl)cn2)c1Oc1ccc(F)cc1 | 90
N#Cc1cccc(Nc2ncc(F)cn2)c1Oc1cc(F)c(F)cc1F | 90
N#Cc1cccc(Nc2ncc(Cl)cn2)c1Oc1ccc(F)nc1 | 100

Consider now this further molecule.
# value of herbicidal activity LOLRI, Lolium rigidum, item "N#Cc1cccc(Nc2ncc(F)cn2)c1Oc1ccc(F)c(F)c1" = 100

====

System: Matricaria inodora
test.method.notes: Herbicidal post-emergence action (greenhouse pots), MATIN
Format: in vivo
details: 1280 g/ha, visual rating about 3 weeks after treatment vs untreated controls
measurement.label: herbicidal activity MATIN
Quick note: number first, unit second.

Some molecules with known herbicidal activity MATIN results, for comparison:
N#Cc1cccc(Nc2ncc([N+](=O)[O-])cn2)c1Oc1ccc(F)cc1 | 100%
N#Cc1cccc(Nc2ncc(Cl)cc2F)c1Oc1ccc(F)cc1 | 100%
Clc1cnc(Nc2ccccc2Oc2ccccc2)nc1 | 100%

Form field herbicidal activity MATIN for item "N#Cc1cccc(Nc2ncc(F)cn2)c1Oc1ccc(F)c(F)c1" on Matricaria inodora: 100%

Measured herbicidal activity MATIN for this entry "N#Cc1cccc(Nc2ncc(F)cn2)c1Oc1ccc(F)nc1" on Matricaria inodora: 90%

Hey, Matricaria inodora data for "Fc1ccc(Oc2c(Cl)cccc2Nc2ncc(Cl)cn2)cc1" : herbicidal activity MATIN came out at 80%

Simply: "N#Cc1cccc(Nc2ncc(Cl)cn2)c1Oc1ccc(F)nc1" , Matricaria inodora, herbicidal activity MATIN = 90%

The value of herbicidal activity MATIN recorded for "N#Cc1cccc(Nc2ncc(F)cn2)c1Oc1ccc(F)c(F)c1F" when tested on Matricaria inodora reads 100%

Tested system Matricaria inodora; herbicidal activity MATIN recorded for "CCc1cnc(Nc2cccc(C#N)c2Oc2ccc(F)cc2)nc1" was 100%

====

System: Stellaria media
test.method.notes: Herbicidal post-emergence action (greenhouse pots), STEME
Type: in vivo
details: 1280 g/ha, visual rating about 3 weeks after treatment vs untreated controls
measurement.label: herbicidal activity STEME (%)
Only the number, expressed in %, is required.

Here's what some known entries look like.
N#Cc1cccc(Nc2ncc(Cl)cn2)c1Oc1ccc(F)nc1 | 100
N#Cc1cccc(Nc2ncc(F)cn2)c1Oc1ccc(C(F)(F)F)cc1 | 100
N#Cc1cccc(Nc2ncc(F)cn2)c1Oc1ccc(F)c(F)c1 | 100
N#Cc1cccc(Nc2ncc(F)cn2)c1Oc1ccc(F)nc1 | 100
Clc1cnc(Nc2ccccc2Oc2ccccc2)nc1 | 100

Measured herbicidal activity STEME (Stellaria media), entry "N#Cc1cccc(Nc2ncc(F)cn2)c1Oc1cc(F)c(F)cc1F" : 100

Case "N#Cc1ccc(Oc2ccccc2Nc2ncc(Cl)cn2)cc1" , Stellaria media, herbicidal activity STEME recorded as 100

Item "N#Cc1cccc(Nc2ccc(F)cn2)c1Oc1ccc(F)c(F)c1" ; assay system Stellaria media; herbicidal activity STEME reported as 90
